- System: HCV 1b-377-neo replicon cells
- assay-remarks: HCV Replicon assay, HCV 1b-377-neo replicon cells
- Assay type: cell-based, HCV 1b genotype
- test-conditions: Hepatitis C virus, Table 2, read-out: Range (EC50 against HCV 1b)
pEC50: −log10 of the molar value.
Provide the recorded pEC50 for the entries that follow.

Would you please look over these solved cases?
{"molecule": "COC(=O)N[C@@H](C(=O)N[C@@H](C)c1ncc(-c2ccc(-c3ccc(-c4cnc([C@H](C)NC(=O)[C@H](NC(=O)OC)c5ccccc5)[nH]4)cn3)nc2)[nH]1)c1ccccc1 [Example 153c-7]", "target-desc": "HCV 1b-377-neo replicon cells", "pEC50": "7.00 to 9.00"}
{"molecule": "C[C@H](NC(=O)[C@@H](c1ccccc1)N(C)C)c1ncc(-c2ccc(-c3ccc(-c4cnc([C@H](C)NC(=O)[C@@H](c5ccccc5)N(C)C)[nH]4)cn3)cc2)[nH]1 [Example 152j-24]", "target-desc": "HCV 1b-377-neo replicon cells", "pEC50": "9.00 to 12.00"}
{"molecule": "COC(=O)N[C@@H](C(=O)N1CCC[C@H]1c1ncc(-c2ccc(-c3ccc(-c4cnc([C@@H]5CCCN5C(=O)[C@@H]5CCCO5)[nH]4)cc3C)cc2)[nH]1)c1ccccc1", "target-desc": "HCV 1b-377-neo replicon cells", "pEC50": "9.00 to 12.00"}
{"molecule": "COC(=O)N[C@@H](C(=O)N1CCC[C@H]1c1ncc(-c2ccc(-c3ccc(-c4cnc([C@@H]5CCCN5C(=O)[C@H](NC(=O)OC)c5ccccc5)[nH]4)cn3)nc2)[nH]1)c1ccccc1", "target-desc": "HCV 1b-377-neo replicon cells", "pEC50": "9.00 to 12.00"}
{"molecule": "COC(=O)N[C@H](C(=O)N1CCC[C@H]1c1nc(-c2cnc(-c3ccc(-c4cnc([C@@H]5CCCN5C(=O)[C@@H](NC(=O)OC)C(C)C)[nH]4)c(F)c3)nc2)c[nH]1)C(C)C", "target-desc": "HCV 1b-377-neo replicon cells", "pEC50": "9.00 to 12.00"}
{"molecule": "COC(=O)N[C@@H](C(=O)N1CCC[C@H]1c1ncc(-c2ccc(-c3ccc(-c4cnc([C@@H]5CCCN5C(=O)[C@H](NC(=O)OC)c5ccccc5)[nH]4)cn3)cc2)[nH]1)c1ccccc1", "target-desc": "HCV 1b-377-neo replicon cells", "pEC50": "9.00 to 12.00"}
{"molecule": "C[C@@H](OCc1ccccc1)[C@H](N)c1ncc(-c2ccc(-c3ccc(-c4cnc([C@@H]5CCCN5)[nH]4)cc3)cc2)[nH]1", "target-desc": "HCV 1b-377-neo replicon cells", "pEC50": "6.00 to 7.00"}
{"molecule": "COC(=O)N[C@H](C(=O)N1CCC[C@H]1c1ncc(-c2ccc(-c3ccc(-c4cnc([C@@H]5CCCN5C(=O)[C@@H](NC(=O)OC)C(C)C)[nH]4)cc3CO)cc2)[nH]1)C(C)C", "target-desc": "HCV 1b-377-neo replicon cells", "pEC50": "6.00 to 7.00"}

Answer for every listed entry: what is its pEC50? The entries follow.
1. COC(=O)N[C@H](C(=O)N[C@H](c1ncc(-c2ccc(-c3ccc(-c4cnc([C@@H]5CCCN5C(=O)[C@@H](NC(=O)OC)C(C)C)[nH]4)cc3)cc2)[nH]1)[C@@H](C)O)C(C)C
2. C[C@@H](c1ncc(-c2ccc(-c3ccc(-c4cnc([C@H](C)N(C)C(=O)[C@@H](c5ccccc5)N5CCCCC5)[nH]4)cc3)cc2)[nH]1)N(C)C(=O)[C@@H](c1ccccc1)N1CCCCC1

Result:
["9.00 to 12.00", "9.00 to 12.00"]

Answer for every listed entry: what is its pEC50? The entries follow.
1. CN(C)[C@@H](C(=O)N1CCC[C@H]1c1ncc(-c2cnc(-c3ncc(-c4cnc([C@@H]5CCCN5C(=O)[C@@H](c5ccccc5)N(C)C)[nH]4)cn3)nc2)[nH]1)c1ccccc1 [Example 153c-3]
2. COC(=O)N[C@@H](C)C(=O)N1CCC[C@H]1c1nc(-c2cnc(-c3ccc(-c4cnc([C@@H]5CCCN5C(=O)[C@H](C)NC(=O)OC)[nH]4)c(F)c3)nc2)c[nH]1
3. COC(=O)N[C@H](C(=O)N1CCC[C@H]1c1ncc(-c2ccc(-c3ccc(-c4cnc([C@@H]5CCCN5C(=O)[C@@H](NC(=O)OC)C(C)C)[nH]4)cc3C(=O)O)cc2)[nH]1)C(C)C
4. CN(C)[C@@H](C(=O)N1CCC[C@H]1c1ncc(-c2ccc(-c3ccc(-c4cnc([C@@H]5CCCN5C(=O)[C@@H](c5ccccc5)N(C)C)[nH]4)cc3C(F)(F)F)cc2)[nH]1)c1ccccc1
5. COC(=O)N[C@@H](C(=O)N1CCC[C@H]1c1ncc(-c2ccc(-c3ccc(-c4cnc([C@@H]5CCCN5C(=O)[C@H](NC(=O)OC)c5ccccc5)[nH]4)cc3C)nc2)[nH]1)c1ccccc1

Result:
1: 5.00 to 6.00; 2: 9.00 to 12.00; 3: 5.00 to 6.00; 4: 9.00 to 12.00; 5: 9.00 to 12.00

Answer for every listed entry: what is its pEC50? The entries follow.
1. COC(=O)N[C@@H](C(=O)N[C@@H](C)c1ncc(-c2cnc(-c3ccc(-c4cnc([C@@H]5CCCN5C(=O)[C@H](NC(=O)OC)c5ccccc5)[nH]4)cc3)cn2)[nH]1)c1ccccc1 [Example 152j-19]
2. C[C@@H](c1ncc(-c2ccc(-c3ncc(-c4cnc([C@@H]5CCCN5C(=O)[C@@H](c5ccccc5)N5CCCCC5)[nH]4)cn3)cc2)[nH]1)N(C)C(=O)[C@@H](c1ccccc1)N1CCCCC1 [Example 152j-6]
3. COC(=O)N[C@H](C(=O)N[C@H](c1ncc(-c2ccc(-c3ccc(-c4cnc([C@@H]5CCCN5C(=O)[C@@H](NC(=O)OC)C(C)C)[nH]4)cc3)cc2)[nH]1)C(C)OCc1ccccc1)C(C)C (stereo partly shown)
4. COC(=O)N[C@@H](C(=O)N[C@@H](C)c1ncc(-c2ccc(-c3ccc(-c4cnc([C@@H]5CCCN5C(=O)[C@H](NC(=O)OC)c5ccccc5)[nH]4)nn3)cc2)[nH]1)c1ccccc1 [Example 152j-14]

Result:
["9.00 to 12.00", "9.00 to 12.00", "9.00 to 12.00", "7.00 to 9.00"]

###

Provide the recorded pEC50 for the entries that follow.
- Tested on: HCV 1b-377-neo replicon cells
- assay-remarks: HCV Replicon assay, HCV 1b-377-neo replicon cells
- Type: cell-based, HCV 1b genotype
- test-conditions: Hepatitis C virus, Table 2, read-out: Range (EC50 against HCV 1b)
pEC50: −log10 of the molar value.

Would you please look over these solved cases?
{"compound": "COC(=O)N[C@@H](C(=O)N1CCC[C@H]1c1ncc(-c2ccc(-c3ccc(-c4cnc([C@@H]5CCCN5C(=O)[C@H](NC(=O)OC)c5ccccc5)[nH]4)nc3)cc2)[nH]1)c1ccccc1", "measured-attribute": "pEC50", "result": "9.00 to 12.00"}
{"compound": "C[C@H](NC(=O)[C@@H](c1ccccc1)N(C)C)c1ncc(-c2ccc(-c3ccc(-c4cnc([C@@H]5CCCN5C(=O)[C@@H](c5ccccc5)N(C)C)[nH]4)nn3)cc2)[nH]1 [Example 152j-13]", "measured-attribute": "pEC50", "result": "7.00 to 9.00"}
{"compound": "COC(=O)N[C@@H](C(=O)N[C@@H](C)c1ncc(-c2cnc(-c3ccc(-c4cnc([C@@H]5CCCN5C(=O)[C@H](NC(=O)OC)c5ccccc5)[nH]4)cc3)nc2)[nH]1)c1ccccc1 [Example 152j-17]", "measured-attribute": "pEC50", "result": "9.00 to 12.00"}
{"compound": "COC(=O)N[C@@H](C(=O)N[C@@H](C)c1ncc(-c2ccc(-c3ncc(-c4cnc([C@@H]5CCCN5C(=O)[C@H](NC(=O)OC)c5ccccc5)[nH]4)cn3)cc2)[nH]1)c1ccccc1 [Example 152j-15]", "measured-attribute": "pEC50", "result": "9.00 to 12.00"}
{"compound": "COC(=O)N[C@H](C(=O)N1CCCC1c1ncc(-c2cc(C)c(-c3c(C)cc(-c4cnc([C@@H]5CCCN5C(=O)[C@@H](NC(=O)OC)C(C)C)[nH]4)cc3C)c(C)c2)[nH]1)C(C)C (stereo partly shown)", "measured-attribute": "pEC50", "result": "9.00 to 12.00"}
{"compound": "COC(=O)N[C@@H](C(=O)N[C@@H](C)c1ncc(-c2ccc(-c3ccc(-c4cnc([C@@H]5CCCN5C(=O)[C@H](NC(=O)OC)c5ccccc5)[nH]4)cn3)cc2)[nH]1)c1ccccc1 [Example 152j-12]", "measured-attribute": "pEC50", "result": "9.00 to 12.00"}

Answer for every listed entry: what is its pEC50? The entries follow.
1. COC(=O)N[C@H](C(=O)N1CCC[C@H]1c1ncc(-c2cnc(-c3ccc(-c4[nH]c([C@@H]5CCCN5C(=O)[C@@H](NC(=O)OC)C(C)C)nc4C(F)(F)F)cc3)nc2)[nH]1)C(C)C
2. CCN(CC)[C@@H](C(=O)N1CCC[C@H]1c1ncc(-c2ccc(-c3ncc(-c4c[nH]c([C@@H]5CCCN5C(=O)[C@H](C)NC(=O)OC)n4)cn3)cc2)[nH]1)c1ccccc1
3. CN(C)[C@@H](C(=O)N1CCC[C@H]1c1ncc(-c2ccc(-c3ccc(-c4cnc([C@@H]5CCCN5C(=O)[C@@H](c5ccccc5)N(C)C)[nH]4)cc3)cc2)[nH]1)c1ccccc1
4. COC(=O)N[C@@H](C(=O)N1CCC[C@H]1c1ncc(-c2ccc(-c3ccc(-c4cnc([C@@H]5CCCN5C(=O)[C@H]5CCCO5)[nH]4)cn3)cc2)[nH]1)c1ccccc1

Result:
1. 9.00 to 12.00
2. 9.00 to 12.00
3. 9.00 to 12.00
4. 9.00 to 12.00
